- protocol.notes: chemical genetic growth profiling, strain panel (AID 1159580);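 further: tested at 20 µM; growth read once vehicle control cultures reached saturation at 30 °C; 1 = growth at the plate median or of vehicle wells; lower values mean less growth of the strain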
- protocol.conditions: S. cerevisiae deletion strains, growth OD, locus YPL051W, strain arl3, stronger effect = lower value
Screen size: about 5,500 compounds; about 2,000 (36%) were called active. Not shown: some 18% with an inconclusive outcome. The list shows a part of the results.
Task for the reader: assign each of the following compounds its reported normalized growth.
Give a plain numeric answer without units written out.

For `NCCCCC(=O)O` , what is its reported normalized growth?
1.01

For C[C@]12C=CC(=O)C=C1CCC1C2[C@@H](O)C[C@@]2(C)C1CC[C@]2(O)C(=O)CO (some centres undefined) , what is its reported normalized growth?
0.995

For C[C@]12CCC3c4ccc(OC(=O)c5ccccc5)cc4CCC3C1CCC2=O (some centres undefined) , what is its reported normalized growth?
1.02

For CC(=O)Oc1ccc2c(c1)CCC1C2CC[C@]2(C)C(=O)CCC12 (some centres undefined) , what is its reported normalized growth?
0.979

For CN[C@@H]1C(OC2[C@H](O[C@H]3[C@H](O)[C@@H](O)[C@H](N=C(N)N)[C@@H](O)[C@@H]3N=C(N)N)OC(C)[C@]2(O)CO)OC(CO)C(O)C1O (some centres undefined) , what is its reported normalized growth?
1.01

For `CC(C)c1nc(N(C)S(C)(=O)=O)nc(-c2ccc(F)cc2)c1/C=C/[C@@H](O)C[C@@H](O)CC(=O)O` , what is its reported normalized growth?
1.02

For Clc1ccc(CSC(Cn2ccnc2)c2ccc(Cl)cc2Cl)cc1 (centres undefined) , what is its reported normalized growth?
0.0666

For `NC1(C(=O)O)CC1` , what is its reported normalized growth?
1.04

For `Cc1oncc1C(=O)Nc1ccc(C(F)(F)F)cc1` , what is its reported normalized growth?
0.987

For CCCCC(=O)O[C@]1(C(=O)CO)CCC2C3CCC4=CC(=O)CC[C@]4(C)C3[C@@H](O)C[C@@]21C (some centres undefined) , what is its reported normalized growth?
1

For CC1C/C=C/C=C/C=C/C=C/C(O[C@@H]2O[C@H](C)[C@@H](O)[C@H](N)[C@@H]2O)CC2OC(O)(CC(O)CC3OC3/C=C/C(=O)O1)CC(O)C2C(=O)O (some centres undefined) , what is its reported normalized growth?
1

For COC(=O)[C@@H]1OC(=O)C2OC23[C@@]1(C)CCC1[C@]2(C)C(C[C@@H](O)[C@]13C)C(C)(C)[C@H](OC(C)=O)C[C@@H]2OC(C)=O (some centres undefined) , what is its reported normalized growth?
1.01

For CC(C)/C(O)=C1/C(=O)O[C@@H](c2ccoc2)[C@]2(C)C(O)[C@@H](O)[C@@]34OC5(C)OC67CC(C)(C(O)[C@]6(O)[C@@H](O)[C@]3(O5)C12)[C@H](CC(=O)O)[C@]74C (some centres undefined) , what is its reported normalized growth?
1.01

For `CCCNC(=O)NS(=O)(=O)c1ccc(Cl)cc1` , what is its reported normalized growth?
1.02

For Clc1ccc(COC(Cn2ccnc2)c2ccc(Cl)cc2Cl)c(Cl)c1 (centres undefined) , what is its reported normalized growth?
0.0665

For `Cc1cc(/C=C/c2ccc3cc(N(C)C)ccc3[n+]2C)c(C)n1-c1ccccc1` , what is its reported normalized growth?
0.914

For `COc1cc(C)c2c(=O)cc(-c3ccccc3)oc2c1` , what is its reported normalized growth?
0.904

For `Clc1ccc(CO/N=C(/Cn2ccnc2)c2ccc(Cl)cc2Cl)c(Cl)c1` , what is its reported normalized growth?
0.0756

For `O=c1oc2ccccc2cc1O` , what is its reported normalized growth?
0.997

---

Task for the reader: assign each of the following compounds its reported normalized growth.
- protocol.notes: chemical genetic growth profiling, strain panel (AID 1159580);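 further: tested at 20 µM; growth read once vehicle control cultures reached saturation at 30 °C; 1 = growth at the plate median or of vehicle wells; lower values mean less growth of the strain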
- protocol.conditions: S. cerevisiae deletion strains, growth OD, locus YPL204W, strain HRR25, stronger effect = lower value
Among all 5,500 compounds or so, about 2,000 (36%) were called active. Inconclusive results (about 18%) are left out. Some of the results follow.
Give a plain numeric answer without units written out.

For `O=S(=O)(NCc1ccc(C(F)(F)F)cc1)c1cccc(C(F)(F)F)c1` , what is its reported normalized growth?
0.918

For `O=C(Oc1ccc2ccccc2c1C1SCCS1)c1ccc([N+](=O)[O-])o1` , what is its reported normalized growth?
0.906

For `N#Cc1cccc(CSc2nc3ccc(C(F)(F)F)cc3[nH]2)c1` , what is its reported normalized growth?
0.877

For CC1C(c2ccccc2)N(C)C(c2ccccc2)CC1(O)c1ccc(F)cc1 (stereo not given) , what is its reported normalized growth?
1

For `O=S(=O)(NCc1ccc(C(F)(F)F)cc1)c1cc(Br)c(Br)s1` , what is its reported normalized growth?
0.795

For `O=S(=O)(NCc1cc(Cl)cc(Cl)c1)c1cc(C(F)(F)F)cc(C(F)(F)F)c1` , what is its reported normalized growth?
0.888

For `COc1ccc(Nc2nc(NC(=O)Nc3ccc(Cl)cc3)n[nH]2)cc1` , what is its reported normalized growth?
0.795

For `Clc1ccccc1-c1csc(-c2ccncc2)n1` , what is its reported normalized growth?
0.93

For `O=S(=O)(Nc1csc(C(F)(F)F)c1-c1ccccc1)c1cc(Br)c(Br)s1` , what is its reported normalized growth?
0.89

For `O=C(Nc1cc(Cl)ccc1O)c1ccccc1CSc1ccc(Cl)cc1` , what is its reported normalized growth?
0.731

---

- protocol.notes: chemical genetic growth profiling, strain panel (AID 1159580);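 further: tested at 20 µM; growth read once vehicle control cultures reached saturation at 30 °C; 1 = growth at the plate median or of vehicle wells; lower values mean less growth of the strain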
- protocol.conditions: S. cerevisiae deletion strains, growth OD, locus YGR135W, strain pre9, stronger effect = lower value
Hit rate of the full screen: of about 5,500 compounds, about 2,000 (36%) were called active. About 18% were inconclusive and are not listed. The list shows a part of the results.
quantity.kind: normalized growth
Give a plain numeric answer without units written out.

For CC(C)/C(O)=C1/C(=O)O[C@@H](c2ccoc2)[C@]2(C)C(O)[C@@H](O)[C@@]34OC5(C)OC67CC(C)(C(O)[C@]6(O)[C@@H](O)[C@]3(O5)C12)[C@H](CC(=O)O)[C@]74C (stereo partly drawn) , what is its reported normalized growth?
1.02

For CCN1C[C@@]2(COC)C3[C@@H](OC)[C@H]4[C@@H]1[C@]3(C(OC)C[C@H]2O)C1C[C@@]2(O)[C@H](OC(=O)c3ccccc3)C1[C@]4(OC(C)=O)[C@@H](O)[C@@H]2OC (stereo partly drawn) , what is its reported normalized growth?
1.03

For CCCCCCCCCCCCCC(=O)OC1C(C)C2(O)C(C=C(CO)CC3(O)C(=O)C(C)=CC32)C2C(C)(C)C12OC(C)=O (stereo not drawn) , what is its reported normalized growth?
1.01

---

Task for the reader: assign each of the following compounds its reported normalized growth.
- protocol.notes: chemical genetic growth profiling, strain panel (AID 1159580);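 further: tested at 20 µM; growth read once vehicle control cultures reached saturation at 30 °C; 1 = growth at the plate median or of vehicle wells; lower values mean less growth of the strain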
- protocol.conditions: S. cerevisiae deletion strains, growth OD, locus YOR184W, strain ser1, stronger effect = lower value
About 2,000 (36%) of roughly 5,500 compounds were called active. Another 18% or so got no clear call; they are omitted. Some of the results follow.
Give a plain numeric answer without units written out.

For CCC(C)C(=O)c1c(O)c(C)c2oc3c(C)c(O)c(C(=O)C(C)CC)c(O)c3c2c1O (stereo not given) , what is its reported normalized growth?
0.977

For O=C(O)C(O)C(O)C(=O)O (stereo not given) , what is its reported normalized growth?
1.01

For `NC(N)=NCCN1CCCCCCC1` , what is its reported normalized growth?
1.03

For COC(=O)[C@@H]1OC(=O)C2OC23[C@@]1(C)CCC1[C@]2(C)C(C[C@@H](O)[C@]13C)C(C)(C)[C@H](OC(C)=O)C[C@@H]2OC(C)=O (stereo not given in full) , what is its reported normalized growth?
1.01

For `Cc1ccc(C(=O)c2ccc(CC(=O)O)n2C)cc1` , what is its reported normalized growth?
0.956

For O=C(O)C(O)C(O)C(O)C(O)C(=O)O (stereo not given) , what is its reported normalized growth?
0.993

For CN(C)CCC(c1ccccc1)c1ccccn1 (stereo not given) , what is its reported normalized growth?
1.01

For CC1[C@H](C)OC(=O)CC(O)CC(O)CC(O)CCC(O)C(O)C[C@]2(O)CC(O)C(C(=O)O)C(CC(OC3O[C@H](C)[C@@H](O)[C@H](N)[C@@H]3O)/C=C/C=C/C=C/C=C/CC/C=C/C=C/[C@H](C)[C@H]1O)O2 (stereo not given in full) , what is its reported normalized growth?
0.0785

For `CC(C)(S)[C@@H](N)C(=O)O` , what is its reported normalized growth?
1.01

For `CC(C)c1nc(N(C)S(C)(=O)=O)nc(-c2ccc(F)cc2)c1/C=C/[C@@H](O)C[C@@H](O)CC(=O)O` , what is its reported normalized growth?
0.997
